This collection of values is drawn from paper PMC5540273.

# maps each entry to its %Inh
System: TLK2;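 note: KINOMEscan kinase panel screen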
Condition Set: concentration: 1 μM, replicates: in singlicate; n = 1
Numeric only. Scale: %

* CCc1nc(-c2cccc(C)c2)c(-c2ccnc(NCc3ccccc3)c2)s1 | 0
* NS(=O)(=O)c1cccc(-c2ccc3ncc(N4CCOCC4)nc3c2)c1 | 8
* Cl.Nc1ncnc2occ(-c3ccc(NC(=O)Nc4cc(C(F)(F)F)ccc4F)cc3)c12 | 4
* O=c1cc(N2CCOCC2)nc2n(Cc3cccc4ccccc34)ccn12 | 0
* Nc1nccc(-c2c(-c3ccc(F)cc3)ncn2C2CCN(CC(F)(F)F)CC2)n1 | 0
* O=c1cc(N2CCOCC2)nc2n(Cc3cccc(Cl)c3Cl)c(C3CC3)nn12 | 0
* Cc1nnc(-c2ccc3occ(-c4ccc(C(C)O)cc4)c3c2)o1 (centres unmarked) | 0

Kindly note the recorded %Inh for NCC(NC(=O)c1cc(-c2cn[nH]c2)c(-c2ccnc3[nH]ccc23)s1)c1ccccc1.O=C(O)C(F)(F)F.O=C(O)C(F)(F)F (centres unmarked) , which is 14
